B1: glmS ribozyme (parent)
chain: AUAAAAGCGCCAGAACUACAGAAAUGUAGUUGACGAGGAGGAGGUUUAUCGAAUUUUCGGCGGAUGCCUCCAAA

variants of: B1; assay: self-cleavage kobs at 10000 uM GlcN6P; higher = faster cleavage; RNA array; settings: with glucosamine-6-phosphate
Fewer inactive variants are shown than the library holds.
MEASURED_PARAMETER: self-cleavage kobs at 10000 uM GlcN6P

Looking for the measured self-cleavage kobs at 10000 uM GlcN6P of U31G A36U C67A C68G , can you help? 6.42e-05 s⁻¹

Looking for the measured self-cleavage kobs at 10000 uM GlcN6P of U31C C67G , can you help? 3.83e-05 s⁻¹

Looking for the measured self-cleavage kobs at 10000 uM GlcN6P of G13U G51A , can you help? < 1e-05 s⁻¹

Looking for the measured self-cleavage kobs at 10000 uM GlcN6P of A14C G59C , can you help? < 1e-05 s⁻¹

Looking for the measured self-cleavage kobs at 10000 uM GlcN6P of G38U A48C C71G , can you help? < 1e-05 s⁻¹

Looking for the measured self-cleavage kobs at 10000 uM GlcN6P of G41A U45A , can you help? 0.000299 s⁻¹

Looking for the measured self-cleavage kobs at 10000 uM GlcN6P of A53G U69G , can you help? 5.13e-05 s⁻¹

Looking for the measured self-cleavage kobs at 10000 uM GlcN6P of "G43A" , can you help? 7.88e-05 s⁻¹

Looking for the measured self-cleavage kobs at 10000 uM GlcN6P of A15U G59C , can you help? < 1e-05 s⁻¹

Looking for the measured self-cleavage kobs at 10000 uM GlcN6P of C34A U56C G63A , can you help? < 1e-05 s⁻¹

Looking for the measured self-cleavage kobs at 10000 uM GlcN6P of A12U U47C G60A , can you help? < 1e-05 s⁻¹

Looking for the measured self-cleavage kobs at 10000 uM GlcN6P of C8G C58G G60A , can you help? < 1e-05 s⁻¹

Looking for the measured self-cleavage kobs at 10000 uM GlcN6P of U30G G35U G43C , can you help? < 1e-05 s⁻¹

Looking for the measured self-cleavage kobs at 10000 uM GlcN6P of C16U C34U , can you help? < 1e-05 s⁻¹

Looking for the measured self-cleavage kobs at 10000 uM GlcN6P of G7C A52U , can you help? < 1e-05 s⁻¹

Looking for the measured self-cleavage kobs at 10000 uM GlcN6P of C16A U31G C67U , can you help? 6.54e-05 s⁻¹

Looking for the measured self-cleavage kobs at 10000 uM GlcN6P of C8A A12U A39G , can you help? < 1e-05 s⁻¹

Looking for the measured self-cleavage kobs at 10000 uM GlcN6P of G9U A12C , can you help? < 1e-05 s⁻¹

Looking for the measured self-cleavage kobs at 10000 uM GlcN6P of A14G U54G G66A , can you help? 0.0163 s⁻¹

Looking for the measured self-cleavage kobs at 10000 uM GlcN6P of C11U U46C , can you help? 6.92e-05 s⁻¹

Looking for the measured self-cleavage kobs at 10000 uM GlcN6P of C19A G59U , can you help? 3.11e-05 s⁻¹

Looking for the measured self-cleavage kobs at 10000 uM GlcN6P of A48U U56C , can you help? 5.09e-05 s⁻¹

Looking for the measured self-cleavage kobs at 10000 uM GlcN6P of G13U C58G , can you help? 0.000381 s⁻¹

Looking for the measured self-cleavage kobs at 10000 uM GlcN6P of G7C U56G , can you help? < 1e-05 s⁻¹

Looking for the measured self-cleavage kobs at 10000 uM GlcN6P of C11U U47A U69A , can you help? 4.5e-05 s⁻¹

Looking for the measured self-cleavage kobs at 10000 uM GlcN6P of G9C G13U G41U G63U , can you help? < 1e-05 s⁻¹

Looking for the measured self-cleavage kobs at 10000 uM GlcN6P of C10G U65G , can you help? < 1e-05 s⁻¹

Looking for the measured self-cleavage kobs at 10000 uM GlcN6P of A33C G63C , can you help? < 1e-05 s⁻¹

Looking for the measured self-cleavage kobs at 10000 uM GlcN6P of G43A U47A , can you help? 4.61e-05 s⁻¹

Looking for the measured self-cleavage kobs at 10000 uM GlcN6P of A39G U65G , can you help? 0.0103 s⁻¹

Looking for the measured self-cleavage kobs at 10000 uM GlcN6P of A39C G66U , can you help? 0.000908 s⁻¹

Looking for the measured self-cleavage kobs at 10000 uM GlcN6P of A6U C10A G40A U46G , can you help? < 1e-05 s⁻¹

Looking for the measured self-cleavage kobs at 10000 uM GlcN6P of U31C A53U , can you help? 0.00421 s⁻¹

Looking for the measured self-cleavage kobs at 10000 uM GlcN6P of A42G A64U , can you help? 0.000158 s⁻¹

Looking for the measured self-cleavage kobs at 10000 uM GlcN6P of A6U U55G , can you help? 0.000416 s⁻¹

Looking for the measured self-cleavage kobs at 10000 uM GlcN6P of G43U U65G , can you help? 3.53e-05 s⁻¹

Looking for the measured self-cleavage kobs at 10000 uM GlcN6P of G44U U55A , can you help? 0.000273 s⁻¹

Looking for the measured self-cleavage kobs at 10000 uM GlcN6P of G66U C71A , can you help? 0.000202 s⁻¹

Looking for the measured self-cleavage kobs at 10000 uM GlcN6P of A15U G62A , can you help? < 1e-05 s⁻¹

Looking for the measured self-cleavage kobs at 10000 uM GlcN6P of U46G U47C , can you help? 0.00332 s⁻¹

Looking for the measured self-cleavage kobs at 10000 uM GlcN6P of U31G G32C , can you help? 0.000405 s⁻¹

Looking for the measured self-cleavage kobs at 10000 uM GlcN6P of A6G U31A U46G C68G , can you help? < 1e-05 s⁻¹

Looking for the measured self-cleavage kobs at 10000 uM GlcN6P of C10U C11U G66C , can you help? < 1e-05 s⁻¹

Looking for the measured self-cleavage kobs at 10000 uM GlcN6P of A12C U54G G66U , can you help? 0.00164 s⁻¹

Looking for the measured self-cleavage kobs at 10000 uM GlcN6P of G44U C58G C68U , can you help? < 1e-05 s⁻¹

Looking for the measured self-cleavage kobs at 10000 uM GlcN6P of A6U C11G G41C G62A G66U , can you help? < 1e-05 s⁻¹
